Experiment: Antiproliferative activity against human CaSki cells incubated for 48 hrs by MTT assay
Format: functional, cell-based
Conditions: Ca-Ski
quantityKind: IC50 (µM)
The reply should contain only the number, in µM.

[[record]]
smilesrepr = "CC(=O)Cn1cc(COC2=C[C@@]3(C)C(=CC2=O)C=C[C@H]2[C@@H]4C[C@@H]5O[C@]6(CC[C@@H](C)CO6)[C@@H](C)[C@@H]5[C@@]4(C)CC[C@@H]23)nn1"
quantitativeresult = 11.8


Field: next compound
Exercise: Dear colleague, I am looking for the recorded IC50 of the following compound: CCCOC1=C[C@@]2(C)C(=CC1=O)C=C[C@H]1[C@@H]3C[C@@H]4O[C@]5(CC[C@@H](C)CO5)[C@@H](C)[C@@H]4[C@@]3(C)CC[C@@H]12
Solution: 32.1

###

Experiment: Antiproliferative activity against human CaSki cells incubated for 48 hrs by MTT assay
Assay type: functional, cell-based
Conditions: Ca-Ski
quantityKind: IC50 (µM)
Give the number; µM is assumed, so skip it.

A selection of reference data follows.
[[record]]
smilesrepr = "COC1=C[C@@]2(C)C(=CC1=O)C=C[C@H]1[C@@H]3C[C@@H]4O[C@]5(CC[C@@H](C)CO5)[C@@H](C)[C@@H]4[C@@]3(C)CC[C@@H]12"
unitlabel = "µM"
quantitativeresult = 28.5

[[record]]
smilesrepr = "CC(C)COC1=C[C@@]2(C)C(=CC1=O)C=C[C@H]1[C@@H]3C[C@@H]4O[C@]5(CC[C@@H](C)CO5)[C@@H](C)[C@@H]4[C@@]3(C)CC[C@@H]12"
unitlabel = "µM"
quantitativeresult = 33.5


Exercise: I'd like to know its IC50. The molecule in question is COc1ccc(Cn2cc(COC3=C[C@@]4(C)C(=CC3=O)C=C[C@H]3[C@@H]5C[C@@H]6O[C@]7(CC[C@@H](C)CO7)[C@@H](C)[C@@H]6[C@@]5(C)CC[C@@H]34)nn2)cc1
Solution: 67

###

Assay: Antiproliferative activity against human CaSki cells incubated for 48 hrs by MTT assay
Assay type: functional, cell-based
Conditions: Ca-Ski
Listing of entries alongside the reported pIC50.
The scale used: pIC50 is minus the common logarithm of the concentration in molar units.

[[record]]
smilesrepr = "CCCCOC1=C[C@@]2(C)C(=CC1=O)C=C[C@H]1[C@@H]3C[C@@H]4O[C@]5(CC[C@@H](C)CO5)[C@@H](C)[C@@H]4[C@@]3(C)CC[C@@H]12"
quantitativeresult = 4.40

[[record]]
smilesrepr = "CC(C)OC1=C[C@@]2(C)C(=CC1=O)C=C[C@H]1[C@@H]3C[C@@H]4O[C@]5(CC[C@@H](C)CO5)[C@@H](C)[C@@H]4[C@@]3(C)CC[C@@H]12"
quantitativeresult = 4.53

[[record]]
smilesrepr = "C[C@@H]1CC[C@@]2(OC1)O[C@H]1C[C@H]3[C@@H]4C=CC5=CC(=O)C(OCc6cn(CC(=O)c7ccccc7)nn6)=C[C@]5(C)[C@H]4CC[C@]3(C)[C@H]1[C@@H]2C"
quantitativeresult = 4.00

[[record]]
smilesrepr = "C[C@@H]1CC[C@@]2(OC1)O[C@H]1C[C@H]3[C@@H]4C=CC5=CC(=O)C(OCc6cn(Cc7ccccc7)nn6)=C[C@]5(C)[C@H]4CC[C@]3(C)[C@H]1[C@@H]2C"
quantitativeresult = 4.96

[[record]]
smilesrepr = "C[C@@H]1CC[C@@]2(OC1)O[C@H]1C[C@H]3[C@@H]4C=CC5=CC(=O)C(OCc6cn(CC(=O)c7cccc(O)c7)nn6)=C[C@]5(C)[C@H]4CC[C@]3(C)[C@H]1[C@@H]2C"
quantitativeresult = 5.03

[[record]]
smilesrepr = "C#CCOC1=C[C@@]2(C)C(=CC1=O)C=C[C@H]1[C@@H]3C[C@@H]4O[C@]5(CC[C@@H](C)CO5)[C@@H](C)[C@@H]4[C@@]3(C)CC[C@@H]12"
quantitativeresult = 4.63

[[record]]
smilesrepr = "CCOC(=O)Cn1cc(COC2=C[C@@]3(C)C(=CC2=O)C=C[C@H]2[C@@H]4C[C@@H]5O[C@]6(CC[C@@H](C)CO6)[C@@H](C)[C@@H]5[C@@]4(C)CC[C@@H]23)nn1"
quantitativeresult = 4.16


Consider the additional compound presented here.
Exercise: Name the recorded pIC50 for C[C@@H]1CC[C@@]2(OC1)O[C@H]1C[C@H]3[C@@H]4C=CC5=CC(=O)C(OCc6cn(CC(=O)c7ccc(O)cc7)nn6)=C[C@]5(C)[C@H]4CC[C@]3(C)[C@H]1[C@@H]2C .
Solution: 4.01
